# Test system: SK-OV-3 ovarian
# runDescription: NCI tumour cell line growth inhibition, 48 h
// values below are reported TGI

C/C=C/CC(S(=O)(=O)c1ccccc1)S(=O)(=O)c1ccccc1 : > 100 µM
O=C1CCN(CCC(F)(F)C(F)(F)C(F)(F)C(F)(F)C(F)(F)C(F)(F)F)C(=S)N1CCC(F)(F)C(F)(F)C(F)(F)C(F)(F)C(F)(F)C(F)(F)F : > 100 µM
CC1CN=C(c2cccc(-c3ccc(-c4ccccc4)o3)c2)N1 (stereo unspecified) : 14.8 µM

Query: Please tell me: TGI of `N#Cc1nc(/C=C/c2nc(C#N)c(N)o2)oc1N` , system SK-OV-3 ovarian?
Result: > 10 µM

Query: Please tell me: TGI of `Cc1cnc(NC2CCOCC2)nc1-n1cnc(C(=O)N[C@H](CN)c2cc(F)cc(Cl)c2)c1` , system SK-OV-3 ovarian?
Result: 8.17 µM

Query: Please tell me: TGI of `Oc1cc(Cn2cnc3c(Cl)nc(Cl)nc32)ccc1C12CC3CC(CC(C3)C1)C2` , system SK-OV-3 ovarian?
Result: 55.1 µM

Query: Please tell me: TGI of `COc1ccc(NC(=O)CC(=O)NN2C(=O)/C(=C/c3ccc(N(CCC#N)CCC#N)cc3C)N=C2/C=C\c2ccccc2)cc1` , system SK-OV-3 ovarian?
Result: > 100 µM

Query: Please tell me: TGI of `N#CC(C#N)=C1/C(=C/C=C/C=C/C=C/c2ccc(N3CCCCC3)s2)S(=O)(=O)c2ccccc21` , system SK-OV-3 ovarian?
Result: > 100 µM

Query: Please tell me: TGI of `CCO/C(O)=C(/C(=N)N1CCOCC1)C(=O)Nc1cccc(Cl)c1` , system SK-OV-3 ovarian?
Result: > 100 µM

Query: Please tell me: TGI of `S=c1nc(COc2ccc(Cl)cc2)[nH][nH]1` , system SK-OV-3 ovarian?
Result: > 100 µM

Query: Please tell me: TGI of CC(=O)O[C@H](C[C@@H](C)[C@H]1C(=O)[C@H](O)[C@@]2(C)C3CC[C@H]4C(C)(C)[C@@H](OC5OCC(O)C(O)C5O)CC[C@@]45C[C@@]35CC[C@]12C)[C@@H]1OC1(C)C (stereo partly specified) , system SK-OV-3 ovarian?
Result: 26.4 µM

###

# System: SNB-19 CNS
# runDescription: NCI tumour cell line growth inhibition, 48 h; in the data active = GI50 below about 0.43 µM; inactive = the rest
Respond with a class label; see true = active, false = inactive

Record excerpt, results attached:
Oc1ccc(Cl)cc1-c1cc(-c2ccc(Cl)cc2)n[nH]1 : false
COc1ccc2[nH]c(=O)c(/C=C/C(=O)c3ccccc3OC)cc2c1 : true
C=C1C(=O)O[C@H]2[C@H]1CC/C(COC(=O)NCc1c[nH]c3ccc(Br)cc13)=C\CC[C@@]1(C)O[C@@H]21 : false

Query: For `N=C(N)c1ccc(-c2ccc(-c3cccs3)o2)cc1` , what call appears in the results of this test?
Result: false

Query: For CC(=O)O[C@H]1[C@@H]2OC(=O)C3(CC3)C2C[C@H]2O[C@]2(C)CC/C=C(\C)CCC[C@@H]1C (stereo partly drawn) , what call appears in the results of this test?
Result: false

Query: For `O=C(Cc1ccc(OCc2ccccc2)cc1)NCc1ccc2c(c1)OCO2` , what call appears in the results of this test?
Result: false

Query: For `COC(=O)CCC1=C(C)C(C)=N/C1=C\c1[nH]c(-c2ccc[nH]2)cc1OC` , what call appears in the results of this test?
Result: false

Query: For `Nc1c(C(=O)c2cccc(-c3ccncc3)c2)cnn1-c1ccc(F)cc1` , what call appears in the results of this test?
Result: false

Reference for the values: PubChem BioAssay (NCI)
